Data provenance is patent US8912221B2.

Molecular target: Bradykinin-1 receptor (Homo sapiens (Human))
Sequence (P46663 whole entry): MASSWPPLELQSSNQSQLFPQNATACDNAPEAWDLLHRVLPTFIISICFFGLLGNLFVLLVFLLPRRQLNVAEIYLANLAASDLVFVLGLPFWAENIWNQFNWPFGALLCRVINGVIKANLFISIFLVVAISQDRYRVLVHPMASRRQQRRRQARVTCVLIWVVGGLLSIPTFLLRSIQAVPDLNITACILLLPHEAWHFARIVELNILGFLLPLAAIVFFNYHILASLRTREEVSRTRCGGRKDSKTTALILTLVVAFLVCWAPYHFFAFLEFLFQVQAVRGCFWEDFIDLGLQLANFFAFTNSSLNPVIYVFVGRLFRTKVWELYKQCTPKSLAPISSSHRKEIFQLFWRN
Value Kind: Ki (nM)

Answered examples (8):
smiles_record=COC(=O)c1c(Cl)cccc1-c1ccc([C@@H](C)NC(=O)C2(NC(=O)c3cc(C)no3)COC2)c(F)c1 endpoint_value=1
smiles_record=COC(=O)c1c(Cl)cccc1-c1ccc([C@@H](C)NC(=O)C2(NC(=O)C(F)(F)F)COC2)c(F)c1 endpoint_value=6.5
smiles_record=C[C@@H](NC(=O)C1(NC(=O)C(F)(F)F)COC1)c1ccc(-c2cc(Cl)cc(Cl)c2OCC(F)F)cc1F endpoint_value=19.9
smiles_record=COc1ncc(C(=O)NC2(C(=O)N[C@H](C)c3ccc(-c4cc(Cl)cc(F)c4-c4noc(C)n4)cc3F)COC2)cn1 endpoint_value=0.6
smiles_record=Cc1nc(-c2c(F)cc(Cl)cc2-c2cnc([C@@H](C)NC(=O)C3(NC(=O)C(F)(F)F)COC3)c(F)c2)no1 endpoint_value=11.9
smiles_record=Cc1nc(-c2c(F)cc(Cl)cc2-c2cnc([C@@H](C)NC(=O)C3(NC(=O)c4snnc4C)COC3)c(F)c2)no1 endpoint_value=1.6
smiles_record=Cc1nc(-c2c(F)cc(Cl)cc2-c2cnc([C@@H](C)NC(=O)C3(NC(=O)c4cccnc4)COC3)c(F)c2)no1 endpoint_value=1.3
smiles_record=COc1cc(C(=O)NC2(C(=O)N[C@H](C)c3ncc(-c4cc(Cl)cc(F)c4-c4nnn(C)n4)cc3F)COC2)on1 endpoint_value=2.2

[1] Cc1nc(-c2c(F)cc(Cl)cc2-c2cnc([C@@H](C)NC(=O)C3(NC(=O)c4nccn4C)COC3)c(F)c2)no1
[2] COc1ncc(C(=O)NC2(C(=O)N[C@H](C)c3ncc(-c4cc(Cl)cc(F)c4-c4noc(C)n4)cc3F)COC2)cn1
Hello, I am sorting some records. Could you say if 1 or 2 has the smaller Ki value? Kindly give the label for the entry you pick.
2
(2: 1.1 nM, 1: 503 nM)

[A] Cc1cc(C(=O)NC2(C(=O)N[C@H](C)c3ncc(-c4cc(Cl)cc(F)c4-c4noc(C)n4)cc3F)COC2)on1
[B] Cc1nc(-c2c(F)cc(Cl)cc2-c2cnc([C@@H](C)NC(=O)C3(NC(=O)c4cncc(N)c4)COC3)c(F)c2)no1
Of the two listed items, A and B , which carries the larger Ki figure? Kindly give the label for the entry you pick.
A

[P] COC(=O)c1c(Cl)cccc1-c1ccc([C@@H](C)NC(=O)C2(NC(=O)c3cncnc3)COC2)c(F)c1
[Q] COCC(=O)NC1(C(=O)N[C@H](C)c2ncc(-c3cc(Cl)cc(Cl)c3OCC(F)F)cc2F)COC1
Hello, I am sorting some records. Could you say if P or Q has the smaller Ki value? Kindly give the label for the entry you pick.
P
